Test system: Allium cepa
Test: Stimulation of germination of Allium cepa (onion) at 0.1 mM after 5 days relative to untreated control
Type: functional
# Activity per record follows

What Activity value was documented for this compound, COC(=O)[C@@]1(C)CCC[C@@]2(C)[C@H]1CC[C@H]1COC(=O)C[C@@H]12 ? 20%

Need Activity of COc1nc(C)nc(NC(=O)NS(=O)(=O)c2ccccc2OCCCl)n1 [LOGRAN] , thanks. 20%

Requested field: Activity. Item: CO[C@@H]1OC(=O)C=C2C1=C[C@H]1OC(=O)[C@@]3(C)CCC[C@@]2(C)[C@@H]13 >40%

Please give the measured Activity for this compound: COC(=O)[C@@]1(C)CCC[C@]2(C)C3=C(CC[C@@H]12)COC(=O)C3 20%

Activity for COC(=O)[C@@]1(C)CCC[C@]2(C)C3=CC(=O)O[C@H](C(C)C)C3=CC[C@@H]12 ? 20%

More entries:
Activity for C[C@@]12CCC[C@]3(C)C4=CC(=O)OCC4=C[C@@H](OC1=O)[C@@H]23 ? 20%

Item COC(=O)[C@@]1(C)CCC[C@@]2(C)[C@H]1CC=C1COC(=O)C[C@@H]12 has what recorded Activity? 20%

Data request, read-out Activity, for CO[C@H]1OC(=O)C=C2C1=C[C@H]1OC(=O)[C@@]3(C)CCC[C@@]2(C)[C@@H]13 >40%

Quick one: Activity of COC(=O)[C@@]1(C)CCC[C@]2(C)c3cc(=O)occ3CC[C@@H]12 ? <20%

Any idea what Activity was measured for COC(=O)[C@@]1(C)CCC[C@]2(C)C3=CC(=O)OC[C@]34O[C@@H]4C[C@@H]12 ? <20%

Record request: Activity value, item COC(=O)[C@@]1(C)CCC[C@]2(C)C3=CC(=O)OCC3=CC[C@@H]12 <20%

---

System: Solanum lycopersicum
Assay: Stimulation of germination of Solanum lycopersicum (tomato) at 0.1 mM after 5 days relative to untreated control
Assay type: functional
The source made the active and inactive calls. The rule behind the calls is not given here.
value type: Activity

Example entries and their recorded answers appear below.
Give recorded Activity with Solanum lycopersicum for the following compound: COC(=O)[C@@]1(C)CCC[C@]2(C)C3=C(CC[C@@H]12)COC(=O)C3 <20%

Give the reported Activity for COC(=O)[C@@]1(C)CCC[C@@]2(C)[C@H]1CC[C@H]1COC(=O)C[C@@H]12 (system: Solanum lycopersicum). inactive

Notebook: pull reported Activity for Solanum lycopersicum, entry C[C@@]12CCC[C@]3(C)C4=CC(=O)OCC4=C[C@@H](OC1=O)[C@@H]23 >40%

Recorded Activity for CO[C@@H]1OC(=O)C=C2C1=C[C@H]1OC(=O)[C@@]3(C)CCC[C@@]2(C)[C@@H]13 with Solanum lycopersicum, please? >40%

What measured Activity is associated with COC(=O)[C@@]1(C)CCC[C@]2(C)c3cc(=O)occ3CC[C@@H]12 on Solanum lycopersicum? inactive

Which Activity is reported with Solanum lycopersicum for this entry: CO[C@H]1OC(=O)C=C2C1=C[C@H]1OC(=O)[C@@]3(C)CCC[C@@]2(C)[C@@H]13 ? >40%

What measured Activity is associated with COC(=O)[C@@]1(C)CCC[C@]2(C)C3=CC(=O)O[C@H](C(C)C)C3=CC[C@@H]12 on Solanum lycopersicum? <20%

Item: COC(=O)[C@@]1(C)CCC[C@]2(C)C3=CC(=O)OCC3=CC[C@@H]12 Test system: Solanum lycopersicum Read-out: Activity Value: ? inactive

Kindly review the next compound as well.
# value lookup — system Solanum lycopersicum, readout Activity, item COC(=O)[C@@]1(C)CCC[C@]2(C)C3=CC(=O)OC[C@]34O[C@@H]4C[C@@H]12 20%

---

Test system: Allium cepa
Assay: Stimulation of shoot length of Allium cepa (onion) at 0.1 mM after 5 days relative to untreated control
Format: functional
value type: Activity

Examples with answers:
Value lookup for Activity; key = C[C@@]12CCC[C@]3(C)C4=CC(=O)OCC4=C[C@@H](OC1=O)[C@@H]23 >40%

What measured Activity goes with COC(=O)[C@@]1(C)CCC[C@]2(C)c3cc(=O)occ3CC[C@@H]12 ? <20%

Activity for COC(=O)[C@@]1(C)CCC[C@]2(C)C3=CC(=O)O[C@H](C(C)C)C3=CC[C@@H]12 ? 20%

For COC(=O)[C@@]1(C)CCC[C@]2(C)C3=C(CC[C@@H]12)COC(=O)C3 , what is its reported Activity? <20%

Tell me the measured Activity of COC(=O)[C@@]1(C)CCC[C@@]2(C)[C@H]1CC=C1COC(=O)C[C@@H]12 , please. <20%

Record request: Activity value, item C[C@]1(C(=O)O)CCC[C@]2(C)C3=CC(=O)OC[C@]34O[C@@H]4C[C@@H]12 <20%

Which Activity reading was recorded for the compound CO[C@H]1OC(=O)C=C2C1=C[C@H]1OC(=O)[C@@]3(C)CCC[C@@]2(C)[C@@H]13 ? >40%

Give its Activity value. Item: COC(=O)[C@@]1(C)CCC[C@]2(C)C3=CC(=O)OCC3=CC[C@@H]12 20%

***
Fill in: Activity of COC(=O)[C@@]1(C)CCC[C@@]2(C)[C@H]1CC[C@H]1COC(=O)C[C@@H]12 is ___ 20%

Fill blank: measured Activity of the compound COc1nc(C)nc(NC(=O)NS(=O)(=O)c2ccccc2OCCCl)n1 is ____. >40%

Look at this compound and give its reported Activity. COC(=O)[C@@]1(C)CCC[C@]2(C)C3=CC(=O)OC[C@]34O[C@@H]4C[C@@H]12 <20%

I'd like to know its Activity. The compound in question is CO[C@@H]1OC(=O)C=C2C1=C[C@H]1OC(=O)[C@@]3(C)CCC[C@@]2(C)[C@@H]13 >40%

---

Tested on: Hordeum vulgare
Assay: Stimulation of root length of Hordeum vulgare (barley) at 0.1 mM after 5 days relative to untreated control
Type: functional
value type: Activity

See these solved cases before continuing.
Need Activity, item CO[C@H]1OC(=O)C=C2C1=C[C@H]1OC(=O)[C@@]3(C)CCC[C@@]2(C)[C@@H]13 >40%

If you can, please state the reported Activity value of COC(=O)[C@@]1(C)CCC[C@]2(C)C3=CC(=O)OC[C@]34O[C@@H]4C[C@@H]12 . 20%

If you can, please state the reported Activity value of COC(=O)[C@@]1(C)CCC[C@]2(C)C3=C(CC[C@@H]12)COC(=O)C3 . >40%

Bench note: what Activity did COC(=O)[C@@]1(C)CCC[C@]2(C)C3=CC(=O)OCC3=CC[C@@H]12 show? >40%

Consider the molecule shown here: COc1nc(C)nc(NC(=O)NS(=O)(=O)c2ccccc2OCCCl)n1 [LOGRAN] What is its recorded Activity? >40%

More entries:
GET /values?readout=Activity&item= C[C@@]12CCC[C@]3(C)C4=CC(=O)OCC4=C[C@@H](OC1=O)[C@@H]23 >40%

// returns reported Activity for input COC(=O)[C@@]1(C)CCC[C@]2(C)c3cc(=O)occ3CC[C@@H]12 20%

Given C[C@]1(C(=O)O)CCC[C@]2(C)C3=CC(=O)OC[C@]34O[C@@H]4C[C@@H]12 , state its recorded Activity. 20%

What value of measured Activity is listed for COC(=O)[C@@]1(C)CCC[C@@]2(C)[C@H]1CC[C@H]1COC(=O)C[C@@H]12 ? >40%

// query Activity value for entry COC(=O)[C@@]1(C)CCC[C@@]2(C)[C@H]1CC=C1COC(=O)C[C@@H]12 20%

Consider the molecule CO[C@@H]1OC(=O)C=C2C1=C[C@H]1OC(=O)[C@@]3(C)CCC[C@@]2(C)[C@@H]13 and give its measured Activity. >40%

Name the recorded Activity for COC(=O)[C@@]1(C)CCC[C@]2(C)C3=CC(=O)O[C@H](C(C)C)C3=CC[C@@H]12 . <20%

---

System: Triticum aestivum
Assay: Stimulation of germination of Triticum aestivum (wheat) at 0.1 mM after 5 days relative to untreated control
Type: functional
Activity calls are given as the source filed them. The rule behind the calls is not given here.
value type: Activity

Give its Activity value. Item: COC(=O)[C@@]1(C)CCC[C@]2(C)C3=CC(=O)OCC3=CC[C@@H]12 inactive

Quick one: Activity for COC(=O)[C@@]1(C)CCC[C@]2(C)C3=CC(=O)O[C@H](C(C)C)C3=CC[C@@H]12 ? inactive

Which Activity is listed for C[C@@]12CCC[C@]3(C)C4=CC(=O)OCC4=C[C@@H](OC1=O)[C@@H]23 ? inactive

---

Test system: Lactuca sativa
Assay: Stimulation of root length of Lactuca sativa cv. Nigra (lettuce) at 0.1 mM after 5 days relative to untreated control
Assay type: functional
value type: Activity

Any idea what Activity was measured for COc1nc(C)nc(NC(=O)NS(=O)(=O)c2ccccc2OCCCl)n1 [LOGRAN] ? >40%

New cases:
Name the recorded Activity for CO[C@H]1OC(=O)C=C2C1=C[C@H]1OC(=O)[C@@]3(C)CCC[C@@]2(C)[C@@H]13 . >40%
